Where do these numbers come from? They come from patent US12637471B2.

# studySystem: Recombinant human aldo-keto reductase family 1 member C2 (AKR1C2) protein (Homo sapiens, UniProt P52895)
# Construct: made in house; host or cells: Sf-9 insect cells (baculovirus)
# Sequence (P52895 whole entry): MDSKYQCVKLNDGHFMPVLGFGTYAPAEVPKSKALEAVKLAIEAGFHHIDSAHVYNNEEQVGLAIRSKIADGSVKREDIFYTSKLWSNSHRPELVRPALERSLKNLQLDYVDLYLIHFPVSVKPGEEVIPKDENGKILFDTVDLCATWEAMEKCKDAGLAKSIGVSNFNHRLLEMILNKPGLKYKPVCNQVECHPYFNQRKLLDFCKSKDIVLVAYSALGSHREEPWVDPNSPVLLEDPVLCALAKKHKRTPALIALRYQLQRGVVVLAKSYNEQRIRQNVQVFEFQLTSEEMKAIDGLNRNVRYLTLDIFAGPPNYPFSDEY
# procedureSummary: Inhibition of the aldo-keto reductase family 1 member C2, 3H-dihydrotestosterone conversion
# Format: biochemical
# statedConditions: inhibitor at 10 μM
measurementName: inhibition at 10 µM (%)
Kindly provide the numeric value in % only, without the unit symbol.

In the examples that follow, each entry is paired with its recorded inhibition at 10 µM.
N#CC(=C1CCN(C(=O)N2CCn3nncc3C2)CC1)c1ccc(C(F)(F)F)cc1 [Compound 150] = 21
CN(C)C(=O)N1CCC(=C(C#N)c2ccc(F)cc2)CC1 [Compound 16] = 8
CO[C@@H]1CCN(C(=O)N2CCC(=C(C#N)c3ccc(F)cc3)CC2)C1 [Compound 7] = 9
COC1CCN(C(=O)N2CCC(=C(C#N)c3cccc(Cl)c3)CC2)CC1 [Compound 17] = 8

input: So what's the measured inhibition at 10 µM for this one? N#CC(=C1CCN(C(=O)N2CCC(O)CC2)CC1)c1cncc(Cl)c1 [Compound 86]
output: 0

input: For the compound N#CC(=C1CCN(C(=O)N2CCc3nocc3C2)CC1)c1cccc(Cl)c1 [Compound 89] , what inhibition at 10 µM is on record?
output: 18

input: Entry under review: N#CC(=C1CCN(C(=O)N2CCC(O)CC2)CC1)c1cccc(Cl)c1 [Compound 80] . Reported inhibition at 10 µM?
output: 7

input: Quick check: inhibition at 10 µM of N#CC(=C1CCN(C(=O)N2CCn3ncnc3C2)CC1)c1ccc(OC(F)(F)F)cc1 [Compound 167] ?
output: 7

input: So what's the measured inhibition at 10 µM for this one? CC(C)OC1CCN(C(=O)N2CCC(=C(C#N)c3ccc(Cl)cc3)CC2)CC1 [Compound 133]
output: 16

input: Field request: inhibition at 10 µM | item: COC1CCN(C(=O)N2CCC(=C(C#N)c3ccc(Cl)cn3)CC2)CC1 [Compound 81]
output: -7

input: Please report the recorded inhibition at 10 µM for N#CC(=C1CCN(C(=O)N2CCc3[nH]ncc3C2)CC1)c1ccc(F)cc1F [Compound 122] .
output: 42

input: Tell me the measured inhibition at 10 µM of N#CC(=C1CCN(C(=O)N2CCC(C(F)(F)F)CC2)CC1)c1ccc(Cl)cc1 [Compound 90] , please.
output: 9

input: Looking for the measured inhibition at 10 µM of N#CC(=C1CCN(C(=O)N2CCc3nocc3C2)CC1)c1cc(F)cc(F)c1 [Compound 158] , can you help?
output: 22

input: // returns reported inhibition at 10 µM for input N#CC(=C1CCN(C(=O)N2CCC(CCCO)CC2)CC1)c1cccc(Cl)c1 [Compound 95]
output: 22

input: I'd like to know its inhibition at 10 µM. The compound in question is N#CC(=C1CCN(C(=O)N2CCC(C(F)(F)F)CC2)CC1)c1ccc(Cl)cn1 [Compound 135]
output: 3

input: GET /values?readout=inhibition at 10 µM&item= COCC1CCN(C(=O)N2CCC(=C(C#N)c3ccc(Cl)s3)CC2)CC1 [Compound 75]
output: 13

input: Look up inhibition at 10 µM: N#CC(=C1CCN(C(=O)N2CCn3cncc3C2)CC1)c1ccc(F)cc1 [Compound 27]
output: 16

input: // query inhibition at 10 µM value for entry N#CC(=C1CCN(C(=O)N2Cc3ccccc3C2)CC1)c1ccc(F)cc1 [Compound 11]
output: 17
